Exercise: for every item that follows, state its recorded GI50.
tested on: KM12; experiment: NCI tumour cell line growth inhibition, 48 h
The source made the active and inactive calls. Rule as the data show it: active = GI50 up to about 1.1 µM and inactive = higher.

Answer for every listed entry: what is its GI50? The entries follow.
1. N#C/N=C1/c2ccccc2/C(=N/C#N)c2cc(CO)ccc21
2. COC(=O)[C@H](Cc1ccccc1)NC(=O)[C@H](Cc1ccccc1)NC(=O)[C@@H]1CCCN1C(=O)N[C@H]1C2C=CC(C2)C1C(=O)N1CCC[C@H]1C(=O)N[C@@H](C)C(=O)N[C@H](C(=O)OC)C(C)C (stereo not given in full)
3. COc1cccc2c1C1(O)C2CCCC12OCCCO2 (stereo not given)
4. O=C1CC(c2ccccc2)n2c(nc3ccccc32)N1 (stereo not given)
5. CSCCCNC(=O)[C@H](CSC)NC(=O)c1csc(CCNC(=O)[C@@H](NSc2ccccc2[N+](=O)[O-])C(C)O)n1 (stereo not given in full)

1. 31.8 µM (inactive)
2. > 100 µM (inactive)
3. > 100 µM (inactive)
4. > 100 µM (inactive)
5. > 100 µM (inactive)

====

test system: SK-MEL-28; experiment: NCI tumour cell line growth inhibition, 48 h
Active and inactive are the calls of the source. No stated cut-off is given here; in the data, active = GI50 up to about 1.1 µM and inactive = higher.
Field 'call' accepts yes (1) (active), no (0) (inactive)

// known answers, use as guide
* CN1C(=O)C2C=CC1C1CCC2N(C)C1=O (stereo not drawn) | no (0)
* COc1ccc2oc(=N)c(C(=O)Nc3cccc4ccccc34)cc2c1 | no (0)
* COC12C=C(C)C(CC1)CC2C(=O)O (stereo not drawn) | no (0)
* C=CCOC(=O)CC[C@H](NC(=O)[C@@H](CCC(F)(F)F)Cc1ccc(O)cc1)C(=O)OCC=C | no (0)
* CC/C(=C(\c1ccccc1)c1ccc(OCC[N+](C)(C)C)cc1)c1ccccc1 [TAMOXIFEN METHYL IODIDE] | no (0)

Outcome? O=C(NN1C(=O)C(Cl)C1c1c(O)ccc2ccccc12)c1ccccc1O (stereo not drawn)
no (0)

Outcome? `CCN(CC)C(=O)Cn1c(-c2ccccc2)cc2ccccc21`
no (0)

Outcome? CN1C(=O)c2ccccc2OC12C=Cc1ccc(O)cc1O2 (stereo not drawn)
no (0)

Outcome? CN1C(=O)c2ccccc2NC(=O)C12O[C@@H]2c1ccccc1 (stereo partly drawn)
no (0)

Outcome? `O=C(COc1ccc(OCC(=O)N2C(=O)CC(=O)N(c3ccccc3)C2=S)cc1)N1C(=O)CC(=O)N(c2ccccc2)C1=S`
no (0)

====

test system: SN12C; experiment: NCI tumour cell line growth inhibition, 48 h
Activity calls are given as the source filed them. Rule as the data show it: active = GI50 up to about 1.1 µM and inactive = higher.
Field 'call' accepts active, inactive

// known answers, use as guide
- CCOC(=O)c1[nH]cc(C)c1-c1c[nH]c2ccccc12: inactive
- CCCCC(C(=O)C(=O)Nc1ccccc1CC)C(=O)C(C)C (stereo not drawn): inactive
- CC(C)CC1CC2C(=O)N(c3ccccc3)C(=O)C2c2[nH]c3ccccc3c21 (stereo not drawn): inactive
- CC1(C)COC(c2c(-c3ccccc3)noc2C[S+]([O-])c2ccccc2)=N1 (stereo not drawn): inactive
- COC(=O)CCC(=O)Nc1cccc(C(F)(F)F)c1: inactive
- Cc1cc(C)c(C(=O)OC(c2ccccc2)C(c2ccccc2)N2CCOCC2)c(C)c1 (stereo not drawn): inactive
- N#Cc1c(-c2ccc(F)cc2)c(-c2ccc(F)cc2)nn(CCO)c1=O: active
- Cc1[nH]n(-c2nc3c(c(=O)[nH]2)CCCC3)c(=O)c1CCO: inactive

Outcome? O=C1CCC2(c3ccc(F)cc3)Nc3ncccc3N12 (stereo not drawn)
inactive

Outcome? C=C1C[C@@H](O)[C@@H](Br)C(C)(C)[C@@]12C=CC(O)(CBr)CC2 (stereo partly drawn)
inactive

Outcome? C/C=C1/CCC2c3[nH]c4ccccc4c3CCN2C1 (stereo not drawn)
inactive

Outcome? `Cc1cc(Oc2cnc(=O)[nH]c2)cs1`
inactive

Outcome? S=C1SCC2CCCN12 (stereo not drawn)
inactive
